Reference source for all entries: the supplement of paper PMC10307832

Recorded relative viability, one value per entry.
# System: LCLC-97TM1
# protocolDescription: relative viability (nuclei count vs DMSO), 5 days (fraction); higher = more cells survive
# studyConditions: first compound 0.04 µM

Worked cases, relative viability given:
O=C(O)c1ccc(-c2c[nH]c3ncc(-c4ccccc4)cc23)cc1C1CCCC1 + C[C@@H](Oc1cc(-c2cnn(C3CCNCC3)c2)cnc1N)c1c(Cl)ccc(F)c1Cl [Crizotinib] (partner 1 µM) | 0.376
O=C(O)c1ccc(-c2c[nH]c3ncc(-c4ccccc4)cc23)cc1C1CCCC1 + CCNC(=O)c1noc(-c2cc(C(C)C)c(O)cc2O)c1-c1ccc(CN2CCOCC2)cc1 [Luminespib] (partner 0.01 µM) | 0.858
O=C(O)c1ccc(-c2c[nH]c3ncc(-c4ccccc4)cc23)cc1C1CCCC1 + O=C(c1cc(Cc2n[nH]c(=O)c3ccccc23)ccc1F)N1CCN(C(=O)C2CC2)CC1 [Olaparib] (partner 8 µM) | 0.435
O=C(O)c1ccc(-c2c[nH]c3ncc(-c4ccccc4)cc23)cc1C1CCCC1 + COc1cccc2cc(-c3nc([C@H]4CC[C@H](C(=O)O)CC4)n4ncnc(N)c34)[nH]c12 [OSI-027] (partner 0.5 µM) | 0.474

Switching to the query record.
Just so you know, measured relative viability for O=C(O)c1ccc(-c2c[nH]c3ncc(-c4ccccc4)cc23)cc1C1CCCC1 + CC(=O)Nc1cccc(-n2c(=O)n(C3CC3)c(=O)c3c(Nc4ccc(I)cc4F)n(C)c(=O)c(C)c32)c1 [Trametinib] (partner 0.02 µM) came out at 0.202

----------
# Tested on: NCI-H2347
# protocolDescription: relative viability (nuclei count vs DMSO), 5 days (fraction); higher = more cells survive
# studyConditions: first compound 0.253 µM
Quick reference for relative viability among some compounds
Answer field: number only, no words.

// worked examples, relative viability included
Oc1nc(-c2ccc(C(F)(F)F)cc2)nc2c1CSCC2 [XAV939] + Cc1nc(NC(=O)N2CCC[C@H]2C(N)=O)sc1-c1ccnc(C(C)(C)C(F)(F)F)c1 [Alpelisib] (partner 2 µM) | 0.97
Oc1nc(-c2ccc(C(F)(F)F)cc2)nc2c1CSCC2 [XAV939] + CC1(C)CCC(c2ccc(Cl)cc2)=C(CN2CCN(c3ccc(C(=O)NS(=O)(=O)c4ccc(N[C@H](CCN5CCOCC5)CSc5ccccc5)c(S(=O)(=O)C(F)(F)F)c4)cc3)CC2)C1 [Navitoclax] (partner 0.5 µM) | 0.886
C=C1C(=O)O[C@@H](CCCCCCCC)[C@@H]1C(=O)O [C-75] + O=C(CCCCCCC(=O)Nc1ccccc1)NO [Vorinostat] (partner 1 µM) | 0.842
Oc1nc(-c2ccc(C(F)(F)F)cc2)nc2c1CSCC2 [XAV939] + CS(=O)(=O)N1CCN(Cc2cc3nc(-c4cccc5[nH]ncc45)nc(N4CCOCC4)c3s2)CC1 [Pictilisib] (partner 1 µM) | 0.636
Oc1nc(-c2ccc(C(F)(F)F)cc2)nc2c1CSCC2 [XAV939] + CC(C)C[C@H](NC(=O)[C@H](Cc1ccccc1)NC(=O)c1cnccn1)B(O)O [Bortezomib] (partner 0.002 µM) | 0.75
C=C1C(=O)O[C@@H](CCCCCCCC)[C@@H]1C(=O)O [C-75] + CS(=O)(=O)N1CCN(Cc2cc3nc(-c4cccc5[nH]ncc45)nc(N4CCOCC4)c3s2)CC1 [Pictilisib] (partner 1 µM) | 0.877

compound C=C1C(=O)O[C@@H](CCCCCCCC)[C@@H]1C(=O)O [C-75] + Nc1nc2[nH]cc(CCc3ccc(C(=O)N[C@@H](CCC(=O)O)C(=O)O)cc3)c2c(=O)[nH]1 [Pemetrexed] (partner 0.2 µM) , relative viability observed: 0.388

----------
# System: NCI-H441
# protocolDescription: relative viability (nuclei count vs DMSO), 5 days (fraction); higher = more cells survive
# studyConditions: first compound 0.3162 µM
valueType: relative viability
Just the number, please, no unit after it.

Reference set, count: 4
NC(=O)Nc1cc(-c2cccc(F)c2)sc1C(=O)N[C@H]1CCCNC1 [AZD7762] + CC(C)C[C@H](NC(=O)[C@H](Cc1ccccc1)NC(=O)c1cnccn1)B(O)O [Bortezomib] (partner 0.002 µM) | 0.456
NC(=O)Nc1cc(-c2cccc(F)c2)sc1C(=O)N[C@H]1CCCNC1 [AZD7762] + C[C@]1(O)C[C@@H](c2nc(-c3ccc4ccc(-c5ccccc5)nc4c3)c3c(N)nccn32)C1 [Linsitinib] (partner 1 µM) | 0.823
NC(=O)Nc1cc(-c2cccc(F)c2)sc1C(=O)N[C@H]1CCCNC1 [AZD7762] + Cc1nc(NC(=O)N2CCC[C@H]2C(N)=O)sc1-c1ccnc(C(C)(C)C(F)(F)F)c1 [Alpelisib] (partner 2 µM) | 1.01
NC(=O)Nc1cc(-c2cccc(F)c2)sc1C(=O)N[C@H]1CCCNC1 [AZD7762] + CC(=O)Nc1cccc(-n2c(=O)n(C3CC3)c(=O)c3c(Nc4ccc(I)cc4F)n(C)c(=O)c(C)c32)c1 [Trametinib] (partner 0.02 µM) | 0.517

Form field relative viability, entry NC(=O)Nc1cc(-c2cccc(F)c2)sc1C(=O)N[C@H]1CCCNC1 [AZD7762] + O=C(CCCCCCC(=O)Nc1ccccc1)NO [Vorinostat] (partner 1 µM) : 0.864

----------
# Test system: A-427
# protocolDescription: relative viability (nuclei count vs DMSO), 5 days (fraction); higher = more cells survive
# studyConditions: first compound 1 µM
Reported values of relative viability for individual entries

NC(=O)Nc1cc(-c2cccc(F)c2)sc1C(=O)N[C@H]1CCCNC1 [AZD7762] + C[C@@H](Oc1cc(-c2cnn(C3CCNCC3)c2)cnc1N)c1c(Cl)ccc(F)c1Cl [Crizotinib] (partner 1 µM) | 0.386
NC(=O)Nc1cc(-c2cccc(F)c2)sc1C(=O)N[C@H]1CCCNC1 [AZD7762] + CC(=O)c1c(C)c2cnc(Nc3ccc(N4CCNCC4)cn3)nc2n(C2CCCC2)c1=O [Palbociclib] (partner 0.5 µM) | 0.334

Entry NC(=O)Nc1cc(-c2cccc(F)c2)sc1C(=O)N[C@H]1CCCNC1 [AZD7762] + CC(C)C[C@H](NC(=O)[C@H](Cc1ccccc1)NC(=O)c1cnccn1)B(O)O [Bortezomib] (partner 0.002 µM) — recorded relative viability = 0.272

Documented relative viability of NC(=O)Nc1cc(-c2cccc(F)c2)sc1C(=O)N[C@H]1CCCNC1 [AZD7762] + COc1cccc2cc(-c3nc([C@H]4CC[C@H](C(=O)O)CC4)n4ncnc(N)c34)[nH]c12 [OSI-027] (partner 0.5 µM) : 0.224

The compound NC(=O)Nc1cc(-c2cccc(F)c2)sc1C(=O)N[C@H]1CCCNC1 [AZD7762] + CS(=O)(=O)N1CCN(Cc2cc3nc(-c4cccc5[nH]ncc45)nc(N4CCOCC4)c3s2)CC1 [Pictilisib] (partner 1 µM) showed relative viability equal to 0.49

----------
# Test system: 201T
# protocolDescription: relative viability (nuclei count vs DMSO), 5 days (fraction); higher = more cells survive
# studyConditions: first compound 1 µM
Attribute: relative viability
// return just the number, without any unit appended

As a guide, the following entries are already answered.
NC(=O)Nc1cc(-c2cccc(F)c2)sc1C(=O)N[C@H]1CCCNC1 [AZD7762] + CC(=O)c1c(C)c2cnc(Nc3ccc(N4CCNCC4)cn3)nc2n(C2CCCC2)c1=O [Palbociclib] (partner 0.5 µM) | 0.402
NC(=O)Nc1cc(-c2cccc(F)c2)sc1C(=O)N[C@H]1CCCNC1 [AZD7762] + C[C@]1(O)C[C@@H](c2nc(-c3ccc4ccc(-c5ccccc5)nc4c3)c3c(N)nccn32)C1 [Linsitinib] (partner 1 µM) | 0.969
NC(=O)Nc1cc(-c2cccc(F)c2)sc1C(=O)N[C@H]1CCCNC1 [AZD7762] + N=C(N)NC(=N)NCCc1ccccc1 [Phenformin] (partner 250 µM) | 0.442

Query compound follows.
Notebook: NC(=O)Nc1cc(-c2cccc(F)c2)sc1C(=O)N[C@H]1CCCNC1 [AZD7762] + CC(=O)Nc1cccc(-n2c(=O)n(C3CC3)c(=O)c3c(Nc4ccc(I)cc4F)n(C)c(=O)c(C)c32)c1 [Trametinib] (partner 0.02 µM) , relative viability read as 0.852

----------
# Test system: NCI-H322M
# protocolDescription: relative viability (nuclei count vs DMSO), 5 days (fraction); higher = more cells survive
# studyConditions: first compound 0.253 µM
valueType: relative viability
# output: bare number, no unit

These solved cases illustrate the format of a correct answer.
C=C1C(=O)O[C@@H](CCCCCCCC)[C@@H]1C(=O)O [C-75] + N=C(N)NC(=N)NCCc1ccccc1 [Phenformin] (partner 250 µM) | 0.886
C=C1C(=O)O[C@@H](CCCCCCCC)[C@@H]1C(=O)O [C-75] + CS(=O)(=O)N1CCN(Cc2cc3nc(-c4cccc5[nH]ncc45)nc(N4CCOCC4)c3s2)CC1 [Pictilisib] (partner 1 µM) | 0.674
C=C1C(=O)O[C@@H](CCCCCCCC)[C@@H]1C(=O)O [C-75] + CC(=O)c1c(C)c2cnc(Nc3ccc(N4CCNCC4)cn3)nc2n(C2CCCC2)c1=O [Palbociclib] (partner 0.5 µM) | 0.525
Oc1nc(-c2ccc(C(F)(F)F)cc2)nc2c1CSCC2 [XAV939] + CC(=O)c1c(C)c2cnc(Nc3ccc(N4CCNCC4)cn3)nc2n(C2CCCC2)c1=O [Palbociclib] (partner 0.5 µM) | 0.464
Oc1nc(-c2ccc(C(F)(F)F)cc2)nc2c1CSCC2 [XAV939] + N=C(N)NC(=N)NCCc1ccccc1 [Phenformin] (partner 250 µM) | 0.716

# Oc1nc(-c2ccc(C(F)(F)F)cc2)nc2c1CSCC2 [XAV939] + C[C@@H](Oc1cc(-c2cnn(C3CCNCC3)c2)cnc1N)c1c(Cl)ccc(F)c1Cl [Crizotinib] (partner 1 µM) with NCI-H322M: relative viability is 0.83

For the compound Oc1nc(-c2ccc(C(F)(F)F)cc2)nc2c1CSCC2 [XAV939] + NC(=O)Nc1cc(-c2cccc(F)c2)sc1C(=O)N[C@H]1CCCNC1 [AZD7762] (partner 0.2 µM) , the measured relative viability on NCI-H322M was 0.45
